assay: Protein melting point by DSC; assay type: physicochemical; settings: protein melting point by DSC; in °C (unit assumed)
Measured attribute: Tm

| Molecule | Measured attribute | Result |
| --- | --- | --- |
| N31A: SP1 mutant N31A, SEQ ID NO:15 (protein, Sp1 mutant variant N31A mutated) MATRTPKLVKHTLLTRFKDEITREQIDNYIADYTNLLDLIPSMKSFNWGTDLGMESAELNRGYTHAFESTFESKSGLQEYLDSAALAAFAEGFLPTLSQRLVIDYFLY | Tm | 110 |
| T34A: SP1 mutant T34A, SEQ ID NO:16 (protein, Sp1 mutant variant T34A mutated) MATRTPKLVKHTLLTRFKDEITREQIDNYINDYANLLDLIPSMKSFNWGTDLGMESAELNRGYTHAFESTFESKSGLQEYLDSAALAAFAEGFLPTLSQRLVIDYFLY | Tm | 114 |
